Would you mind telling me the reported cell viability of each entry?
Tested on: WHIM30 (cells of a triple-negative basal-like breast cancer xenograft);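 further: cells dissociated from PDX tumors propagated in female NSG mouse mammary fat pads, vehicle control 0.1% DMSO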
Test: cell viability (% of vehicle); higher = less cytotoxic
Conditions: 1 µM; 72 h
API doc: respond with a numeric literal and nothing else, no unit.

Per the records, this compound ( COc1cc(Nc2c(C#N)cnc3cc(OCCCN4CCN(C)CC4)c(OC)cc23)c(Cl)cc1Cl [Bosutinib (SKI-606)] ) has cell viability equal to 68.4

// cell viability lookup, compound = C=C1C(=CC=C2CCCC3(C)C2CCC3C(C)C=CC(C)C(C)C)CC(O)CC1O (stereo not drawn) , result: 93.1

// field: cell viability; key: CCC(=C(c1ccccc1)c1ccc(OCCN(C)C)cc1)c1ccccc1.O=C(O)CC(O)(CC(=O)O)C(=O)O [Tamoxifen Citrate] ; value = 99.9

Entry COc1cccc2c1C(=O)c1c(O)c3c(c(O)c1C2=O)C[C@@](O)(C(C)=O)C[C@@H]3O[C@H]1C[C@H](N)[C@H](O)[C@H](C)O1.Cl [Daunorubicin HCl] ; cell viability = 48

Reported cell viability ( CCOc1cc2ncc(C#N)c(Nc3ccc(F)c(Cl)c3)c2cc1NC(=O)C=CCN(C)C [Pelitinib (EKB-569)] ) = 46.1

The reported cell viability of the compound CN1CCN(CCOc2cc(OC3CCOCC3)c3c(Nc4c(Cl)ccc5c4OCO5)ncnc3c2)CC1 was 57.5

cell viability reported for this compound Cc1cc(Nc2ncc(Cl)c(Nc3ccccc3S(=O)(=O)C(C)C)n2)c(OC(C)C)cc1C1CCNCC1 : 47.9

response.value for CSc1ccc2c(c1)N(CCC1CCCCN1C)c1ccccc1S2.Cl (stereo not drawn) [Thioridazine HCl] (field: cell viability) = 84.7

Given item COCCn1c2c([n+](Cc3cnccn3)c1C)C(=O)c1ccccc1C2=O.[Br-] , the value recorded as its cell viability is 27

Memo: CCN(CC)CCNC(=O)c1c(C)[nH]c(C=C2C(=O)Nc3ccc(F)cc32)c1C , reported cell viability: 86.7

Value of cell viability reported for the compound C#Cc1cccc(Nc2ncnc3cc(OCCOC)c(OCCOC)cc23)c1.Cl [Erlotinib Hydrochloride] is 80.5

// field: cell viability; key: COc1cc2nccc(Oc3ccc(NC(=O)Nc4cc(C)on4)c(Cl)c3)c2cc1OC ; value = 85.1

The compound CNC(=O)c1cc(Oc2ccc(NC(=O)Nc3ccc(Cl)c(C(F)(F)F)c3)c(F)c2)ccn1.Cl [Regorafenib hydrochloride] showed cell viability equal to 98.7

---

System: HCI11 (cells of an ER-positive luminal breast cancer xenograft);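 further: PDX cells carrying CMV promoter-driven luciferase, viability read as total photon flux per second by IVIS imaging following D-luciferin, vehicle control 0.1% DMSO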
Experiment: cell viability (% of vehicle); higher = less cytotoxic
Conditions: 10 µM; 72 h
Measured cell viability determines class: range A (below 90), range B (90 to below 100), range C (100 or more)

Dear colleague, I would appreciate it if you could identify the bin for Nc1ccc(S(N)(=O)=O)cc1 [Sulfanilamide] and reply at your convenience.
range A

Band for the recorded cell viability of CC1(C)SC2C(NC(=O)C(N)c3ccccc3)C(=O)N2C1C(=O)[O-].[Na+] (configuration not stated) ?
range A

Bin? CN1CCC(=C2c3ccccc3C=Cc3ccccc32)CC1.Cl [Cyproheptadine hydrochloride]
range B

For the record OCCOCCN1CCN(C2=Nc3ccccc3Sc3ccccc32)CC1 , report the class its cell viability corresponds to.
range B

Which class is correct for the following compound? Nc1ccn(C2OC(CO)C(O)C2O)c(=O)n1 (configuration not stated)
range C

Tag the class for CCC(C(C)O)n1ncn(-c2ccc(N3CCN(c4ccc(OCC5COC(Cn6cncn6)(c6ccc(F)cc6F)C5)cc4)CC3)cc2)c1=O (configuration not stated)
range A

Would you mind sorting CC(C)NCC(O)c1ccc(NS(C)(=O)=O)cc1.Cl (configuration not stated) [Sotalol hydrochloride] into the appropriate category?
range C

Class? Entry: CCNC1(C(N)=O)CCN(c2ncnc3c2nc(-c2ccccc2Cl)n3-c2ccc(Cl)cc2)CC1.Cl
range A

Tag the class for COc1cc2c(cc1OC)C(=O)C(CC1CCN(Cc3ccccc3)CC1)C2.Cl (configuration not stated) [Donepezil HCl]
range C

// return the class label for COc1ccccc1OCC(O)COC(N)=O (configuration not stated)
range C

Which bin, given its cell viability, does CCOc1cc(CC(=O)NC(CC(C)C)c2ccccc2N2CCCCC2)ccc1C(=O)O (configuration not stated) [Repaglinide] occupy?
range C

Category lookup for the compound Cn1cnc2c(F)c(Nc3ccc(Br)cc3F)c(C(=O)NOCCO)cc21
range A

Class label required: Cl.Clc1cccc(Cl)c1NC1=NCCN1 [Clonidine HCl]
range C

Hi, small favor: classify Cc1ccc(O)c(C(CCN(C(C)C)C(C)C)c2ccccc2)c1.O=C(O)C(O)C(O)C(=O)O (configuration not stated) [Tolterodine tartrate] by its cell viability when you get a moment.
range B

Which class holds CCCc1nc(C(C)(C)O)c(C(=O)O)n1Cc1ccc(-c2ccccc2-c2nn[nH]n2)cc1 ?
range C
